These entries and their values trace back to PubChem BioAssay (NCI).

# Tested on: CCRF-CEM leukemia
# PROCEDURE_DETAILS: NCI-60 one-dose screen, 48 h
# DETAILS: 10 µM unless noted
The panel holds about 83,000 compounds, 20% with a hit somewhere; the sample as a whole holds those more often. The source made the active and inactive calls. How the source made its calls: active means growth percent below 10; inactive means the rest.
Lab note: assign the record to one of t (active), f (inactive)

Look over these answered cases.
Please share the test call associated with CCCCCCCCCCCCCCCCCC(=O)OCCCCCCCCCCCCC . f

Please share the test call associated with c1cc(C2CCCCC2)ccc1-c1cnc2nonc2n1 . t

Please share the test call associated with CC1CCCN(CCCCOc2ccc(-c3ccc(C#N)cc3)cc2)C1 (stereo not drawn) . f

Please share the test call associated with Cc1ccc(C)c2c1SC1=NNC(Oc3ccc(Cl)cc3)=C(C#N)C(=N)N12 . f

Further cases:
Please share the test call associated with O=C(N/N=C/c1ccccc1O)c1ccncc1 . f

Please share the test call associated with O=C1NN(C(=O)c2ccccc2)C(c2ccc(Cl)c(Cl)c2)=C/C1=C\c1ccccc1[N+](=O)[O-] . f

Please share the test call associated with O=[N+]([O-])c1ccc(N/N=C/c2ccccc2O)nc1 . f

Please share the test call associated with ClCCn1cnc2c(SCc3ccccc3Cl)ncnc21 . f

---

# Test system: OVCAR-4 ovarian
# PROCEDURE_DETAILS: NCI-60 one-dose screen, 48 h (100 = growth as untreated, 0 = no growth, -100 = all killed)
# DETAILS: 10 µM unless noted
This is part of a sample that, as a whole, favours compounds with a hit. Of some 83,000 tested, about 20% had one in any assay.
Collected growth values appear next to each entry.
Reply numerically in %, unit not repeated.

Please review the entries below; each comes with its answer.
Entry under review: Clc1ccc(-c2cnc3nonc3n2)s1 . Reported growth? 89.9

Entry under review: CCOC(=O)Cn1c(-c2nonc2NC(=O)c2ccccc2F)nc2ccccc21 . Reported growth? 90.8

Entry under review: CCCCCCCCCCCCCCCC1=NCCN1 . Reported growth? 78

Entry under review: COc1cc2ccc(C(C)=O)cc2cc1OC . Reported growth? 120

Pending compound:
Entry under review: C=C1C(=O)O[C@H]2[C@H]1CC/C(COC(=O)NCc1cn(C)c3ccccc13)=C\CC[C@@]1(C)O[C@@H]21 . Reported growth? 12

---

# System: IGROV1 ovarian
# PROCEDURE_DETAILS: NCI-60 one-dose screen, 48 h (100 = growth as untreated, 0 = no growth, -100 = all killed)
# DETAILS: 10 µM unless noted
The panel holds about 83,000 compounds, 20% with a hit somewhere; the sample as a whole holds those more often.
READOUT_KIND: growth (%)
Reply numerically in %, unit not repeated.

Entry under review: Cc1ccc2c(C)c3c(ccc4ccccc43)c[n+]2c1 . Reported growth? 60.6

Entry under review: Cc1cc(-c2ccccc2)on1 . Reported growth? 98.1

Pending molecule:
Entry under review: CN(C)CCCN1c2ccccc2CCc2ccccc21 . Reported growth? 94.8

---

Collected growth values appear next to each entry.
# Test system: SN12C renal
# PROCEDURE_DETAILS: NCI-60 one-dose screen, 48 h (100 = growth as untreated, 0 = no growth, -100 = all killed)
# DETAILS: 10 µM unless noted
This is part of a sample that, as a whole, favours compounds with a hit. Of some 83,000 tested, about 20% had one in any assay. Activity calls are given as the source filed them. The calls were made as follows: active = growth percent below 10; inactive = the rest.

Provide value of growth for this record tested with SN12C renal: COc1ccccc1-[n+]1cc(-c2ccc(-c3ccccc3)cc2)n2c1CCCCC2 0.949% (active)

Pending compound:
Provide value of growth for this record tested with SN12C renal: CCOC(OCC)c1cnc2nc(NC(C)=O)[nH]c(=O)c2n1 101% (inactive)
